# study target: Ylr278c (UniProt Q05854)
# Sequence (Q05854 whole entry): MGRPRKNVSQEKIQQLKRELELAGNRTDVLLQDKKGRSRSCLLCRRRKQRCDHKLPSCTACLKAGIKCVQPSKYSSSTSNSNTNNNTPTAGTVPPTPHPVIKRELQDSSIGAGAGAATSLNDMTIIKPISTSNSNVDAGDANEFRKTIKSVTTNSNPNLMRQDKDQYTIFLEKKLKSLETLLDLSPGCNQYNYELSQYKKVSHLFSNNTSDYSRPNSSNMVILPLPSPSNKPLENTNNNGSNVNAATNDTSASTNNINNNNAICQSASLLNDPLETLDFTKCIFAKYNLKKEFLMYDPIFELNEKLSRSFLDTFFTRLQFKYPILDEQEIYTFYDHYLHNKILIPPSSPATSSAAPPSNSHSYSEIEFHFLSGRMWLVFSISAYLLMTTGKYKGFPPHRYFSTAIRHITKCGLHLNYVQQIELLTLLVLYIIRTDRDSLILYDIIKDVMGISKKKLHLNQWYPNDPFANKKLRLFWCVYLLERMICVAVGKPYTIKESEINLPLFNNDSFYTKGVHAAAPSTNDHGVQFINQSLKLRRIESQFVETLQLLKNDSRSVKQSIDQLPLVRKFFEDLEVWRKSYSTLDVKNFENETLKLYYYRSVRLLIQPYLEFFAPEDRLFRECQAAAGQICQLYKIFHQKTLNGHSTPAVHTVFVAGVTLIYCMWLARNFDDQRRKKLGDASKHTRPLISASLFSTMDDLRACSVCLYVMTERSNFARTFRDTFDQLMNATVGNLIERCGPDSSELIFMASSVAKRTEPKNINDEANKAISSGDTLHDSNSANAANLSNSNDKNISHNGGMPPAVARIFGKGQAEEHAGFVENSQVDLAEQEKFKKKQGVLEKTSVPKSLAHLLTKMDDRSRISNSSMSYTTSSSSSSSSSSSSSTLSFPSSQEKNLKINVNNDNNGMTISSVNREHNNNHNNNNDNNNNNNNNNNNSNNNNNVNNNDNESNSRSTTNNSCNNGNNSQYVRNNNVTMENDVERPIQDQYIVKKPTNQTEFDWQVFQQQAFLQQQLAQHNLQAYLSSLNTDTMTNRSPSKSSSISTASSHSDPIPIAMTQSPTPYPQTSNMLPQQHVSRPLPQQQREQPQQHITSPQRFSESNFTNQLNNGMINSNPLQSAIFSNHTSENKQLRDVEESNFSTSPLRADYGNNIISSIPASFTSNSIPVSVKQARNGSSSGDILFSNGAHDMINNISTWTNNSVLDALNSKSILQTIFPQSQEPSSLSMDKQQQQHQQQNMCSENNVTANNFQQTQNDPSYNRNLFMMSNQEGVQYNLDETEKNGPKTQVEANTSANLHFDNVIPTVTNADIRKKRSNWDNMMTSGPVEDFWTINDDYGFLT
# assay procedure: PBM E-score (8-mer binding enrichment) (E-score (-0.5 to 0.5)); higher = stronger / more preferred TF binding
# condition context: protein concentration: 200 nM; construct: GST-DNA-binding domain
The full ranking holds about 33,000 sequences; the median of “E-score (-0.5 to 0.5)” is about -0.054, and the highest 2% start at about 0.39. This excerpt belongs to a sample that is enriched for the highest values.
Rule: PBM E-score under -0.02 gives not satisfied, otherwise satisfied.

> print(dat)
    chain.sequence              study.target  assigned.class
 1        TGCCGAAA  Ylr278c (UniProt Q05854)       satisfied
 2        AAGCTCCT  Ylr278c (UniProt Q05854)   not satisfied
 3        CGGAACTA  Ylr278c (UniProt Q05854)       satisfied
 4        CAGCTCCG  Ylr278c (UniProt Q05854)       satisfied
 5        ACCAGGAT  Ylr278c (UniProt Q05854)   not satisfied
 6        ATCCGAAC  Ylr278c (UniProt Q05854)       satisfied
 7        AATGGAAT  Ylr278c (UniProt Q05854)       satisfied
 8        CTGAACTC  Ylr278c (UniProt Q05854)   not satisfied
 9        CCTTTCGC  Ylr278c (UniProt Q05854)       satisfied
10        ATAACTTG  Ylr278c (UniProt Q05854)   not satisfied
11        CGCCGAAA  Ylr278c (UniProt Q05854)       satisfied
12        ACTTCAGA  Ylr278c (UniProt Q05854)       satisfied
13        CAGCTCCA  Ylr278c (UniProt Q05854)   not satisfied
14        CTCCGAAA  Ylr278c (UniProt Q05854)       satisfied
15        CCTCAAAG  Ylr278c (UniProt Q05854)   not satisfied
16        AAGCTCCG  Ylr278c (UniProt Q05854)       satisfied
17        CTGAGGGC  Ylr278c (UniProt Q05854)   not satisfied
18        AGGAACTA  Ylr278c (UniProt Q05854)   not satisfied
19        CAGCTCCC  Ylr278c (UniProt Q05854)   not satisfied
20        TTCCGAAA  Ylr278c (UniProt Q05854)       satisfied
21        TCCCGAAA  Ylr278c (UniProt Q05854)       satisfied
22        GGGAACTA  Ylr278c (UniProt Q05854)       satisfied
